Reference for the values: patent US20240287154A1

PROTOCOL NOTES: in vitro
CONDITION LABEL: mouse, plasma
Non-standard residues stand in square brackets, D forms with d. Residues, ends and D or L forms follow the SMILES beside them. Phe(4-Br) = N[C@@H](Cc1ccc(Br)cc1)C(=O)O; NMeY = CN[C@@H](Cc1ccc(O)cc1)C(=O)O; Nle = CCCC[C@H](N)C(=O)O
Reported remaining at 0.25 h, 1 µM values follow for various compounds
PARAMETER MEASURED: remaining at 0.25 h, 1 µM (%)

CCCC[C@H](NC(=O)[C@@H](NC(=O)[C@@H](N)Cc1ccc(O)cc1)C(C)C)C(=O)N[C@H](C)C(=O)N[C@@H](Cc1c[nH]cn1)C(=O)N[C@@H](Cc1ccc(Br)cc1)C(=O)N[C@@H](CCCNC(=N)N)C(=O)N[C@H](Cc1c[nH]c2ccccc12)C(=O)N[C@@H](CC(=O)O)C(=O)N[C@@H](CCCNC(=N)N)C(=O)N[C@@H](Cc1ccccc1)C(=O)NCC(=O)O [CTX-2120] (H-YV[Nle][dA]H[Phe(4-Br)]R[dW]DRFG-OH) :: 0.78
CC(C)[C@H](NC(=O)[C@@H](N)Cc1ccc(O)cc1)C(=O)N[C@@H](CCC(=O)O)C(=O)NCC(=O)N[C@@H](Cc1c[nH]cn1)C(=O)N[C@@H](Cc1ccccc1)C(=O)N[C@@H](CCCNC(=N)N)C(=O)N[C@H](Cc1c[nH]c2ccccc12)C(=O)N[C@@H](CC(=O)O)C(=O)N[C@@H](CCCNC(=N)N)C(=O)N[C@@H](Cc1ccccc1)C(=O)NCC(N)=O [CTX-1105] (H-YVEGHFR[dW]DRFG-NH2) :: 1.51
CCCC[C@H](NC(=O)[C@@H](NC(=O)[C@@H](N)Cc1ccc(O)cc1)C(C)C)C(=O)N[C@H](C)C(=O)N[C@@H](Cc1c[nH]cn1)C(=O)N[C@@H](Cc1ccccc1)C(=O)N[C@@H](CCCNC(=N)N)C(=O)N[C@H](Cc1c[nH]c2ccccc12)C(=O)N[C@@H](CC(=O)O)C(=O)N[C@H](CCCNC(=N)N)C(=O)N[C@@H](Cc1ccccc1)C(=O)NCC(=O)O [CTX-1126] (H-YV[Nle][dA]HFR[dW]D[dR]FG-OH) :: 0.16
CCCC[C@H](NC(=O)[C@@H](NC(=O)[C@H](Cc1ccc(O)cc1)NC)C(C)C)C(=O)N[C@H](C)C(=O)N[C@@H](Cc1c[nH]cn1)C(=O)N[C@@H](Cc1ccccc1)C(=O)N[C@@H](CCCNC(=N)N)C(=O)N[C@H](Cc1c[nH]c2ccccc12)C(=O)N[C@@H](CC(=O)O)C(N)=O [CTX-1141] (H-[NMeY]V[Nle][dA]HFR[dW]D-NH2) :: 118
